Data origin: PubChem BioAssay (NCI)

Below is a list of entries, each paired with its recorded TGI value.
Tested on: OVCAR-4 ovarian
procedure.text: NCI tumour cell line growth inhibition, 48 h

Measured TGI of COc1ccc(/C=C2\C[C@H]3[C@@H]4CC=C5C[C@@H](O)CC[C@]5(C)[C@H]4CC[C@]3(C)\C2=N\O)cc1 : > 100 µM

Entry O=C1NC(=NCc2cccs2)O/C1=C\c1ccc2ncccc2c1 — recorded TGI = > 20.3 µM

Per the records, this compound ( O=C1C(Cl)=CC2(C=C1Cl)CCN=c1c(O)c3c(c(O)c12)=NC=N3 ) has TGI equal to > 100 µM

// TGI lookup, compound = CCc1nc(N)nc(N)c1-c1ccc(N2CCOCC2)c(N=[N+]=[N-])c1 , result: > 100 µM

// NC1=C(c2nc(-c3ccccc3)cs2)C(c2ccco2)c2c(c3ccccc3oc2=O)O1 (stereo unspecified) : TGI value = > 100 µM

###

Tested on: SK-MEL-28 melanoma
procedure.text: NCI tumour cell line growth inhibition, 48 h
measure.name: TGI

In the examples that follow, each entry is paired with its recorded TGI.
1. O=c1[nH]c2ccccc2c2oc3ccccc3c12 :: > 100 µM
2. C/C(=C\c1ccccc1)C(O)C(=O)c1nc2ccc(Cl)cc2[nH]c1=O (stereo not drawn) :: > 100 µM

// next entry
GET /values?item= O=c1c(-c2ccccc2)c(SCCCN2CCCCC2)n(-c2ccccc2)c(=S)n1-c1ccccc1 &system= SK-MEL-28 melanoma returns TGI: 33.2 µM

###

# maps each entry to its TGI
System: DU-145 prostate
procedure.text: NCI tumour cell line growth inhibition, 48 h

1. COC(=O)C1=C(OC)C(=P2(c3ccccc3)CC(c3ccccc3)=C2c2ccccc2)C(C(=O)OC)=C1C(=O)OC (stereo not drawn) :: > 100 µM
2. COc1cc(S(=O)(=O)Nc2nc(-c3ccc(N=Cc4ccccc4O)cc3)cs2)ccc1Cl :: > 100 µM

Now let's try a different one.
Summary line: C=CCN(c1cc(O)c2c(c(C)cn2S(=O)(=O)c2ccccc2)c1[N+](=O)[O-])S(C)(=O)=O , DU-145 prostate, reported TGI = > 100 µM

###

Tested on: M14 melanoma
procedure.text: NCI tumour cell line growth inhibition, 48 h
measure.name: TGI (µM)
Give just the numeric value; µM need not be written.

The examples below pair each entry with its known result.
1. CN1CCN(C(=O)/C=C/c2ccc([N+](=O)[O-])o2)CC1 :: 11.7
2. COc1cc2c(cc1C)NC(=O)/C2=C\c1ccc(Oc2ccccc2)cc1 :: 29.2
3. CC[C@]12C=CCN3CC[C@@]4(c5ccc(OC)cc5N(C)[C@H]4[C@@](O)(C(=O)OC)[C@@H]1OC(=O)CCCN1CCN(CCCC(=O)O[C@@H]4[C@]5(CC)C=CCN6CC[C@@]7(c8ccc(OC)cc8N(C)[C@H]7[C@@]4(O)C(=O)OC)[C@@H]65)CC1)[C@@H]32 :: 3.61

Switching to the query record.
Noted for CCOC(=O)C#Cc1c(C(=O)OCC)nnn1[C@@H]1O[C@H](COC)[C@@H](OC)[C@H]1OC : its TGI reads 10.8

###

Test system: SF-268 CNS
procedure.text: NCI tumour cell line growth inhibition, 48 h
measure.name: TGI (µM)
I only need the number, in µM, no unit after it.

1. CCOC(=O)C#Cc1c(C(=O)OCC)nnn1[C@@H]1O[C@H](COC)[C@@H](OC)[C@H]1OC :: 35.6

Now let's try a different one.
The compound identified as COC1=CC(=O)C(O)=C(CC2(C)C(C)CCC3(C)C2CCCC3(C)C)C1=O (centres undefined) registered its TGI at 25.4
